- Experimental target: nitrogen monoxide synthase (NO synthase) (Rattus norvegicus)
- Construct: the supernatant was then decanted off and frozen in portions; from tissue; host or cells: rat cerebellum (homogenate, 20,000 g supernatant)
- Run description: HTS-NOS assay (nitrogen monoxide synthase assay)
- Format: biochemical
- Test conditions: compound at 10 μM; enzyme preparation from rat cerebella; [3H]-arginine substrate
Readout label: inhibition at 10 µM (%)

The cases that follow already have their inhibition at 10 µM on record.
INSERT INTO assay_data (compound, result) VALUES
  ('Cc1ccnc(NC2CC(C)(c3ccc(C(C)(C)C)cc3)OC2=O)c1 (stereo not shown)', 84),
  ('Cc1cnc(NC2CC(C)(c3ccc(C(C)(C)C)cc3)OC2=O)c(Br)c1 (stereo not shown)', 48),
  ('Cc1cc(C)nc(NC2CC(C)(c3ccc4ccccc4c3)OC2=O)c1 (stereo not shown)', 65),
  ('CC(C)(C)c1ccc(C2(C)CC(Nc3ncccc3OCc3ccccc3)C(=O)O2)cc1 (stereo not shown)', 54),
  ('CC1(c2ccc3ccccc3c2)CC(Nc2ccc([N+](=O)[O-])cn2)C(=O)O1 (stereo not shown)', 47);

1 = Cc1ccc(C2(C)CC(Nc3cc(C)cc(C)n3)C(=O)O2)cc1 (stereo not shown)
2 = Cc1cc(C)nc(NC2CC(C)(c3ccc(C)cc3C)OC2=O)c1 (stereo not shown)
Of 1 and 2 , which carries the smaller reported inhibition at 10 µM figure? Mark your selection by writing its label. 2
(2: 42%, 1: 61%)

* * *

- Experimental target: nitrogen monoxide synthase (NO synthase) (Rattus norvegicus, UniProt P29476)
- Construct: the supernatant was then decanted off and frozen in portions; from tissue; host or cells: rat cerebellum (homogenate, 20,000 g supernatant)
- Run description: HTS-NOS assay (nitrogen monoxide synthase assay)
- Format: biochemical
- Test conditions: compound at 10 μM; enzyme preparation from rat cerebella; [3H]-arginine substrate
Readout label: inhibition at 10 µM (%)

The cases that follow already have their inhibition at 10 µM on record.
INSERT INTO results (compound, readout_label, result) VALUES
  ('COc1ccc(C2(C)CC(Nc3cc(C)cc(C)n3)C(=O)O2)cc1 (stereo not drawn) [Example 73]', 'inhibition at 10 µM', 56),
  ('Cc1ccnc(NC2CC(C)(c3ccc(C4CCCCC4)cc3)OC2=O)c1 (stereo not drawn) [Example 8]', 'inhibition at 10 µM', 41),
  ('COc1ccc(C2(C)CC(Nc3ncc(C(F)(F)F)cc3Cl)C(=O)O2)c(OC)c1 (stereo not drawn) [Example 71]', 'inhibition at 10 µM', 54),
  ('Cc1cc(C)nc(NC2CC(C)(c3ccc(C)c(C)c3)OC2=O)c1 (stereo not drawn) [Example 2]', 'inhibition at 10 µM', 45),
  ('CC(C)C1(c2ccccc2)CC(Nc2ccc([N+](=O)[O-])cn2)C(=O)O1 (stereo not drawn) [Example 43]', 'inhibition at 10 µM', 45);

1 = CC1(c2ccc3c(c2)OCO3)CC(Nc2n[nH]cc2C#N)C(=O)O1 (stereo not drawn) [Example 32]
2 = Cc1cc(C)nc(NC2CC(C)(c3cccc(Cl)c3)OC2=O)c1 (stereo not drawn) [Example 58]
Select one: 1 or 2 . Criterion: greater recorded inhibition at 10 µM. Mark your selection by writing its label. 2
(2: 73%, 1: 41%)

* * *

- Experimental target: nitrogen monoxide synthase (NO synthase) (Rattus norvegicus, UniProt P29476)
- Construct: the supernatant was then decanted off and frozen in portions; from tissue; host or cells: rat cerebellum (homogenate, 20,000 g supernatant)
- Run description: HTS-NOS assay (nitrogen monoxide synthase assay)
- Type: biochemical
- Test conditions: compound at 10 μM; enzyme preparation from rat cerebella; [3H]-arginine substrate
Readout label: inhibition at 10 µM (%)

INSERT INTO results (compound, experimental_target, measurement_units, result) VALUES
  ('COc1ccccc1C1(C)CC(Nc2n[nH]cc2Br)C(=O)O1 (centres unmarked) [Example 63]', 'nitrogen monoxide synthase (NO synthase) (Rattus norvegicus, UniProt P29476)', '%', 51),
  ('Cc1cccc(C2(C)CC(Nc3cc(C)cc(C)n3)C(=O)O2)c1 (centres unmarked) [Example 11]', 'nitrogen monoxide synthase (NO synthase) (Rattus norvegicus, UniProt P29476)', '%', 81),
  ('Cc1ccc(NC2CC(C)(c3ccc4c(c3)OCO4)OC2=O)nc1 (centres unmarked) [Example 39]', 'nitrogen monoxide synthase (NO synthase) (Rattus norvegicus, UniProt P29476)', '%', 44),
  ('COc1ccc(OC)c(C2(C)CC(Nc3ncc(C(F)(F)F)cc3Cl)C(=O)O2)c1 (centres unmarked) [Example 69]', 'nitrogen monoxide synthase (NO synthase) (Rattus norvegicus, UniProt P29476)', '%', 58),
  ('CC1(c2ccc(Br)cc2)CC(Nc2ncccc2OCc2ccccc2)C(=O)O1 (centres unmarked) [Example 56]', 'nitrogen monoxide synthase (NO synthase) (Rattus norvegicus, UniProt P29476)', '%', 59);

A = Cc1ccnc(NC2CC(C)(c3ccc4c(c3)OCO4)OC2=O)c1 (centres unmarked) [Example 37]
B = Cc1ccnc(NC2CC(C)(c3ccc(Oc4ccccc4)cc3)OC2=O)c1 (centres unmarked) [Example 23]
Of A and B , which carries the smaller reported inhibition at 10 µM figure? Mark your selection by writing its label. A
